System: Ba/F3-EGFR G719A+T790M cells
METHOD DESCRIPTION: Cell growth inhibitory effect, G719A+T790M mutant EGFR-expressing Ba/F3 cell line (CellTiter-Glo)
Assay type: cell-based, mouse
CONDITION SET: Mus musculus, Ba/F3 EGFR, 72 h, read-out: IC50 (nM) G719A + T790M
OUTCOME MEASURE: IC50

Please report the measured IC50 for C=CC(=O)Nc1cc(Nc2nccc(-c3cn(C)c4ccccc34)n2)c(OC)cc1N(C)CCN(C)C [Osimertinib, osimertinib, reference compound]
89.4 nM

---

TARGET OF ASSAY: human EGFR G719C (Homo sapiens, UniProt P00533, G719C)
Sequence (P00533 25-1210 G719C): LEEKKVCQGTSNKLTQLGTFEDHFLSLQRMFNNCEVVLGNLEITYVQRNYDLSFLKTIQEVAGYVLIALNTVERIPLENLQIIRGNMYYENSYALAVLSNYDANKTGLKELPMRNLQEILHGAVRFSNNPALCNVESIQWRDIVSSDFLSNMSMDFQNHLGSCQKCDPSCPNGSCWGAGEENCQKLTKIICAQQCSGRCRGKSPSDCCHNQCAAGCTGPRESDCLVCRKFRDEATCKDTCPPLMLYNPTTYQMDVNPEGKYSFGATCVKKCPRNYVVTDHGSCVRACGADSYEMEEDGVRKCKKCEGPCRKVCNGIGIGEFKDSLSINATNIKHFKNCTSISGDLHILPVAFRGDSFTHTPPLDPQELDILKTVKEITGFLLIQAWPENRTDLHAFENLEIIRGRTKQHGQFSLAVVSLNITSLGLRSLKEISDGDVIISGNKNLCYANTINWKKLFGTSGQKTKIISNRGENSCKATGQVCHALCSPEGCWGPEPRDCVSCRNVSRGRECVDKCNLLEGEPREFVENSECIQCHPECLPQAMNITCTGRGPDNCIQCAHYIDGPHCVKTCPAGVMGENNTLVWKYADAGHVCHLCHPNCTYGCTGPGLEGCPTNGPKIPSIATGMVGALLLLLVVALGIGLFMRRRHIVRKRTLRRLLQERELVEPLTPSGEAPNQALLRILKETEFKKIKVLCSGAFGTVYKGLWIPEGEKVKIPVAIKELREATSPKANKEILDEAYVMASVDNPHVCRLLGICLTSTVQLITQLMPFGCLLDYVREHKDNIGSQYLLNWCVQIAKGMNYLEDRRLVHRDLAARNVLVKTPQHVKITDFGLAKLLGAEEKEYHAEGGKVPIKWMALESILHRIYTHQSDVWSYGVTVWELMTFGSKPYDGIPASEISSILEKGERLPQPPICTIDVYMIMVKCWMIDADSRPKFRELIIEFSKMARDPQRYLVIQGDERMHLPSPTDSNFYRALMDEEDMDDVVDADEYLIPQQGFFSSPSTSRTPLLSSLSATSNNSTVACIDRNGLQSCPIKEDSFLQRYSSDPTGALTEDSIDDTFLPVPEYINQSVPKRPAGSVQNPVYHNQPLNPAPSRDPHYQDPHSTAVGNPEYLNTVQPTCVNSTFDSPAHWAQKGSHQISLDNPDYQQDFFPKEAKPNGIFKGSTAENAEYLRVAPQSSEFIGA
METHOD DESCRIPTION: Intracellular EGFR phosphorylation in mutant EGFR forced expression system using HEK293 cells
CONDITION SET: HEK293 cells expressing human EGFR G719C, 6 hours; read-out: IC50, phosphorylated EGFR inhibition, G719C
OUTCOME MEASURE: pIC50
pIC50 (log units): -log10 of the concentration in mol/L.

Find the measured pIC50 of C=CC(=O)N[C@H]1C=C(C)c2c(-c3cnc4ccccc4c3)c3c(N)ncnc3n2C1 [Compound A] and report it.
5.03
